// data source = patent US5708063A

# experiment: Durability of poly(allyl diglycol carbonate) lens impregnated with the compound in silicone oil, as in Example 9 (Example 10)
# Type: physicochemical
# Design: unit not given here
# condition parameters: silicone oil impregnation, 1.0×10^-4 mole/g
measured endpoint: Initial color density

# compound, experimental result
measured = [
    ("O=C1C2=C(C3CC3)c3cc(Br)sc3C3(C4CCCC3CCC4)C2C(=O)N1CCc1ccc2ccccc2c1 (stereo not shown)", 0.81),
    ("COC(=O)CN1C(=O)C2=C(C3CC3)c3ccoc3C3(C4CCC3CC4)C2C1=O (stereo not shown)", 0.73),
    ("CC(=O)CN1C(=O)C2=C(C3CC3C)c3cc(-c4ccccc4)sc3C3(C4CCC3CC4)C2C1=O (stereo not shown)", 0.82),
    ("COC(=O)C(C)N1C(=O)C2=C(C3CC3)c3cc(-c4cccc(OC)c4)sc3C3(C4CC5CC(Cl)(C4)CC3(Cl)C5)C2C1=O (stereo not shown)", 0.67),
]
